target_desc: Dual specificity protein kinase CLK4 (Homo sapiens) (UniProt Q9HAZ1)
Sequence (Q9HAZ1 whole entry, looked up): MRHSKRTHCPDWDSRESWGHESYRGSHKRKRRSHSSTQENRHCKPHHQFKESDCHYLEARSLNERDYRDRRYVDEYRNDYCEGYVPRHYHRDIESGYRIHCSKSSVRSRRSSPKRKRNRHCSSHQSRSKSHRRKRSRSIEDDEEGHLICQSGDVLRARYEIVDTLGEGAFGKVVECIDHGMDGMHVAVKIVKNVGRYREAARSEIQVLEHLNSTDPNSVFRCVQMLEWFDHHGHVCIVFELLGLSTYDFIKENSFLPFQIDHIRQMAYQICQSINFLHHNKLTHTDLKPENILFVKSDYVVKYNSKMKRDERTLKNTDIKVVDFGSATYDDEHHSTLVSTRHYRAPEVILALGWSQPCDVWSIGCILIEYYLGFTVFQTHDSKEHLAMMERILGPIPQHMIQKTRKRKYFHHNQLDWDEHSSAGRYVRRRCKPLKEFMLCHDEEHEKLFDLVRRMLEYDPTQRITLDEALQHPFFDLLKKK
experiment: qHTS Assay for Inhibitors of CDC-like Kinase 4 (ADP-FP Assay) (AID 1795); note: nearly all actives have a fitted effect of over 60% in size; note: potency is the fitted concentration of half-maximal effect
condition_summary: Transcreener ADP fluorescence polarization; series mostly up to 50 µM
Inconclusive results are not listed. Active and inactive are the calls of the source. Calls come from the whole dose curve; as a rule, active = well fitted inhibition curve with a large enough effect; inconclusive = small, poorly fitted or top-dose-only effect; inactive = flat fitted curve, though single readings scatter.
assay_readout: Potency

A selection of reference data follows.
Item `Cc1nc2cnc(N3CCOCC3)nc2n(Cc2ccc(F)cc2)c1=O` with Dual specificity protein kinase CLK4 (Homo sapiens) (UniProt Q9HAZ1) - Potency?
inactive

Next: `COc1cccc(Cn2c(=O)c(-c3ccc(F)cc3)nc3cnc(N(C)C)nc32)c1`
inactive

Then this molecule: `CN1CCN(c2ncncc2-c2ccc(C(=O)N(C)C)cc2)CC1`
inactive

# repeat for `CN(C)Cc1ccccc1-c1cncnc1Nc1ccncc1`
inactive

Same for `CN(C)c1ncc2nc(-c3ccccc3)c(=O)n(-c3ccccc3)c2n1`
inactive

Also `CCNc1ncc2nc(-c3ccc(OC)cc3)c(=O)n(C[C@H]3CCCO3)c2n1` , if possible.
inactive

Request: `COc1ccc(-n2c(=O)c(-c3ccccc3)nc3cnc(N4CCNCC4)nc32)cc1`
inactive

Please answer likewise for `Cn1cc(-c2nc3cnc(Oc4ccccc4)nc3n(C)c2=O)c2ccccc21`
inactive

Likewise for `CS(=O)(=O)Nc1cccc(-c2ccc3ncnc(Nc4ccccc4)c3c2)c1` ?
14.1 µM (active)

Moving on to `COc1ncc2nc(-c3cccs3)c(=O)n(CCc3ccccc3)c2n1`
inactive

Further cases:
Record lookup: for Dual specificity protein kinase CLK4 (Homo sapiens) (UniProt Q9HAZ1), what Potency belongs to `CC(=O)NCCNc1ncnc2ccc(-c3cccc(NS(C)(=O)=O)c3)cc12` ?
8.91 µM (active)

Next molecule up: `CCNc1ncc2nc(C)c(=O)n(C3CC3)c2n1`
inactive

What about this molecule? `COCCn1c(=O)c(C)nc2cnc(Oc3ccc(OC)cc3)nc21`
inactive

Similarly, `Cc1ccccc1-c1cncnc1NCc1ccccc1` ?
inactive

And then `COCCn1c(=O)c(-c2cn(C)c3ccccc23)nc2cnc(Oc3cccc(Cl)c3)nc21` , what is it?
inactive

Let us now turn to `CN(C)c1ccc(-c2cc(Nc3ccc(F)cc3)ncn2)cc1`
inactive

Also, `CN1CCN(c2ncncc2-c2ccccc2C(F)(F)F)CC1` please.
inactive

Another: `COCCn1c(=O)c(-c2ccccc2)nc2cnc(OC)nc21`
inactive

Same for `N#Cc1cccc(-c2cncnc2NCc2cccs2)c1`
inactive

Another molecule to look at: `COc1ncc2nc(-c3ccc(F)cc3)c(=O)n(C)c2n1`
inactive

Same for `CS(=O)(=O)Nc1cccc(-c2ccc3ncnc(NC4CC4)c3c2)c1`
4.47 µM (active)

Continue with `N#CCCn1c(=O)c(-c2ccc(Cl)cc2)nc2cnc(Oc3ccccc3)nc21`
inactive

Next entry: `COc1ncc2nc(-c3cc(F)cc(F)c3)c(=O)n(-c3ccccc3)c2n1`
inactive

Then `Cc1ccccc1-c1cc(N(C)C)ncn1` ?
inactive

Okay, and `CN(C)c1ncnc2ccc(-c3cccnc3)cc12` ?
12.6 µM (active)

Follow-up item: `Cc1ccccc1-c1nc(NCc2cccs2)c2ccccc2n1`
inactive

Would you kindly repeat that for `COc1cccc(Nc2ncc3nc(CCc4ccccc4)c(=O)n(C)c3n2)c1` ?
inactive

Now try `CN(C)Cc1ccccc1-c1nc(NCc2cccs2)c2ccccc2n1` .
inactive

And what about the molecule `COCCn1c(=O)c(C)nc2cnc(N(C)C)nc21` ?
inactive

Now consider `Clc1ccccc1-c1cncnc1NCc1cccs1` and answer again.
inactive

Now try `FC(F)(F)c1ccccc1-c1nccc(N2CCNCC2)n1` .
inactive

Param item: `COCCn1c(=O)c(-c2cn(C)c3ccccc23)nc2cnc(N3CCNCC3)nc21`
inactive

* * *

target_desc: Cytochrome P450 1A2 (Homo sapiens)
experiment: p450-cyp1a2 (AID 410); note: potency is the fitted concentration of half-maximal effect
condition_summary: recombinant CYP1A2, luciferin-ME demethylation, luminescence; series mostly up to 57 µM
Results filed as inconclusive are left out. Calls of active or inactive are those of the source. Calls follow the shape of the full dose curve.
assay_readout: Potency

Solved cases (4 shown):
So what Potency did `COc1ccccc1CN1CC2(CCN(C(=O)c3cnccn3)CC2)C1` get with Cytochrome P450 1A2 (Homo sapiens)?
inactive

Likewise for `O=C(c1ccco1)N1CCC[C@@]2(CCN(Cc3nccs3)C2)C1` ?
inactive

Next record, please: `c1ccc(CNc2ccnc(-c3ccoc3)n2)cc1`
2.51 µM (active)

Also, `COc1ccccc1CN1CC[C@@]2(CCCN(C(C)=O)C2)C1` please.
inactive

Others:
Look up Potency with Cytochrome P450 1A2 (Homo sapiens) for this compound: `Cc1cccc(CNc2ncnc3ccc(-c4ccc5c(c4)OCO5)cc23)c1`
0.501 µM (active)

Please answer likewise for `COCCn1c(=O)cnc2cnc(Nc3ccccc3)nc21`
1 µM (active)

Follow-up entry: `N#CCCn1c(=O)cnc2cnc(N3CCOCC3)nc21`
10 µM (active)

* * *

experiment: AP1 Signaling Pathway (AID 357);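 note: ME-180 reporter cells stimulated with EGF at its EC50 level; % is set by controls: 0 for no effect and ±100 for the full control effect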
condition_summary: ME-180 AP-1-bla reporter, EGF-induced, beta-lactamase ratio, 5 h; at 7.69 µM (top of the series) unless noted
Inconclusive results are not listed. Activity calls are given as the source filed them. Calls come from the whole dose curve; as a rule, active = well fitted curve in either direction with a large enough effect (not every such curve was filed as active); inconclusive = small, poorly fitted or top-dose-only effect, or another doubt; inactive = flat fitted curve, though single readings scatter.
assay_readout: activity change, negative = inhibition

Which activity change, negative = inhibition value is on record for `O=C(Nc1ccccc1)N1CCC2(CC1)CCN(C(=O)c1cnccn1)CC2` ?
-8.59% (inactive)

***
Consider the compound shown here: `COc1cccc(-c2nc(NCc3ccccc3)c3ccccc3n2)c1` What is its recorded activity change, negative = inhibition?
-17.6% (inactive)

// repeat for `Cc1cccc(CNc2ccnc(-c3ccoc3)n2)c1` and report
0.94% (inactive)

One more compound: `FC(F)(F)c1ccccc1-c1nc(N2CCNCC2)c2ccccc2n1`
6.77% (inactive)

What do you have for `CC(C)NC(=O)N1CCC2(CC1)CCN(C(=O)c1cc(C(F)(F)F)cc(C(F)(F)F)c1)CC2` ?
-12% (inactive)

Moving on to the next compound: `O=C(c1cccc(F)c1)N1CCC[C@@]2(CCN(Cc3nccs3)C2)C1`
2.29% (inactive)

And then `CCNc1ncc2nc(-c3ccc(Cl)cc3)c(=O)n(C[C@H]3CCCO3)c2n1` , what is it?
25.5% (inactive)

And the next one, `Cn1cc(-c2nc3cnc(N4CCOCC4)nc3n(C3CC3)c2=O)c2ccccc21` ?
-18.1% (inactive)

Consider next the compound `N=C1Sc2ccccc2C2=NCCCN12` in the same way.
18% [at 38 µM] (inactive)

Item: `Cc1noc(C)c1C(=O)N1CCC2(CC1)CN(c1ccccc1)C2`
-19.3% (inactive)

`CC(=O)NCCNc1ncnc2ccc(-c3ccoc3)cc12` ?
-5.21% (inactive)

* * *

System: CP291
experiment: qHTS profiling for inhibitors of Plasmodium falciparum proliferation (AID 504749); note: nearly all actives have a fitted effect of over 60% in size
condition_summary: P. falciparum in erythrocytes, SYBR Green DNA, 72 h; series mostly up to 28.7 µM
Records with an inconclusive call do not appear. Active and inactive are the calls of the source. Calls follow the shape of the dose curve; as a rule, active = well fitted inhibition curve with a large enough effect; inconclusive = small, poorly fitted or top-dose-only effect; inactive = flat fitted curve, though single readings scatter.
One label from this list, please: active, inactive

Worked set:
Hi team, can someone confirm the assay call for CC(C)C[C@H]1C(=O)N2CCCC2[C@]2(O)O[C@](NC(=O)[C@@H]3C=C4c5cccc6[nH]c(Br)c(c56)C[C@H]4N(C)C3)(C(C)C)C(=O)N12 (some centres not stated) ?
active

Also `C[C@@H]1[C@H](O)[C@@H](C)/C=C/C=C/C=C/C=C/C=C/C=C/C=C/[C@H](O[C@@H]2O[C@H](C)[C@@H](O)[C@H](N)[C@@H]2O)C[C@@H]2O[C@](O)(C[C@@H](O)C[C@@H](O)[C@H](O)CC[C@@H](O)C[C@@H](O)CC(=O)O[C@H]1C)C[C@H](O)[C@H]2C(=O)O` , if possible.
inactive

What do you get for `C[C@@]12C(=O)OC(=O)[C@]1(C)[C@H]1CC[C@@H]2O1` ?
active

Further cases:
State the result this test recorded for CN=C(N)NCCCC(N)C(=O)O (configuration not stated) .
inactive

Item: `COc1ccc(CCNC[C@@H](O)c2ccc(O)cc2)cc1OC`
inactive

Can you handle C=C1CCC2[C@](C)(CO)C(O)CC[C@]2(C)C1C/C=C1/C(=O)OCC1O (some centres not stated) next?
inactive

Same again, this time with CN1C(=O)CCC1c1cccnc1 (configuration not stated)
inactive

* * *

experiment: AP1 Signaling Pathway (AID 357);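 note: ME-180 reporter cells stimulated with EGF at its EC50 level; % is set by controls: 0 for no effect and ±100 for the full control effect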
condition_summary: ME-180 (cervical carcinoma) AP-1-bla reporter, EGF-induced, beta-lactamase ratio, 5 h; at 7.69 µM (top of the series) unless noted
Procedure: NCGC Assay Overview: Activator protein-1 (AP-1), a transcription factor, plays an important role in tumor genesis by regulating genes involved in cell proliferation, differentiation, apoptosis, and angiogenesis. AP-1 activity is induced by a complex network of signaling pathways that involves extracellular signals, such as growth factors. […] Library compounds were measured for their ability to modulate positively or negatively the action of EC50 EGF on reporter gene activity. […]
Inconclusive results are not listed.
assay_readout: activity change, negative = inhibition (%)
Numeric only. Scale: %

I'd like to know its activity change, negative = inhibition. The compound in question is `Cc1ccccc1-c1ccc2ncnc(NC3CC3)c2c1`
5.4

Entry to check: `Cn1cccc1C(=O)N1CCC2(CCN(C(=O)Nc3cccc(F)c3)CC2)CC1`
-12.6

Please do the same for `COc1ccc(Oc2ncc3nc(-c4ccc(OC)cc4)c(=O)n(C)c3n2)cc1` as well.
-7.57

Further cases:
Give its activity change, negative = inhibition value. Item: `Cn1cc(-c2nc3cnc(N4CCNCC4)nc3n(CCC#N)c2=O)c2ccccc21`
14.5

How about this compound: `CN(C)c1ncc2nc(-c3ccccc3)c(=O)n(-c3ccccc3)c2n1`
15.6

Further, for `CCNc1ncc2nc(C)c(=O)n(C3CC3)c2n1` ?
-8.59
